The measurements presented in this section are drawn from ChEMBL document CHEMBL4483862.

# System: Plasmodium berghei
# Protocol Details: Luciferase/luciferin-expressing antifolate-resistant parasites were used to infect a culture of HepG2 cells that were pre-incubated with compounds. Infected hepatocytes emit light due to the luciferase reaction. Assay results are presented as the percent inhibition of light emission compared to control. […]
# Format: functional
# Protocol Conditions: sporozoite, HEPG2TOX_HILL_SLOPE 8.22, HEPG2TOX_R_SQUARED 0.0887, PBLUC_HILL_SLOPE 4.24, PBLUC_R_SQUARED 0.444, read-out: LUCIFERASE INFECTION ASSAY - IC50
Assay Metric: IC50 (µM)
// note: answer is a bare numeric in µM

What measured IC50 goes with CCC(C)NC(=O)c1c(NC(=O)c2cccc(C)c2)nc2ccc(C)cn12 (stereo unspecified) ?
3.93

====

# Tested on: Plasmodium berghei
# Protocol Details: Luciferase/luciferin-expressing antifolate-resistant parasites were used to infect a culture of HepG2 cells that were pre-incubated with compounds. Infected hepatocytes emit light due to the luciferase reaction. Assay results are presented as the percent inhibition of light emission compared to control. […]
# Type: functional
# Protocol Conditions: sporozoite, PBLUC_HILL_SLOPE 208, PBLUC_R_SQUARED 0.19, read-out: LUCIFERASE INFECTION ASSAY - IC50
Assay Metric: IC50 (µM)
// note: answer is a bare numeric in µM

What measured IC50 goes with O=C(Nc1cccc(F)c1)Nc1ccc2nc(-c3cccs3)nn2c1 ?
4.29

====

# System: Plasmodium berghei
# Protocol Details: Luciferase/luciferin-expressing antifolate-resistant parasites were used to infect a culture of HepG2 cells that were pre-incubated with compounds. Infected hepatocytes emit light due to the luciferase reaction. Assay results are presented as the percent inhibition of light emission compared to control. […]
# Format: functional
# Protocol Conditions: sporozoite, HEPG2TOX_HILL_SLOPE 2.89, HEPG2TOX_R_SQUARED 0.596, read-out: LUCIFERASE INFECTION ASSAY - IC50
pIC50: −log10 of the molar value.
Assay Metric: pIC50

What measured pIC50 goes with COc1cc(Nc2ncc3c(n2)CCN(C(=O)Nc2ccc(OC(F)(F)F)cc2)C3)cc(OC)c1OC ?
< 5.20

====

# Tested on: Plasmodium berghei
# Protocol Details: Luciferase/luciferin-expressing antifolate-resistant parasites were used to infect a culture of HepG2 cells that were pre-incubated with compounds. Infected hepatocytes emit light due to the luciferase reaction. Assay results are presented as the percent inhibition of light emission compared to control. […]
# Type: functional
# Protocol Conditions: sporozoite, FFLUC_HILL_SLOPE 32.7, FFLUC_R_SQUARED 0.34, HEPG2TOX_HILL_SLOPE 7.48, HEPG2TOX_R_SQUARED 0.362, PBLUC_HILL_SLOPE 14.2, PBLUC_R_SQUARED 0.182, read-out: LUCIFERASE INFECTION ASSAY - IC50
Assay Metric: IC50

What measured IC50 goes with CCCCNC(=O)c1c(NC(=O)COc2ccccc2)nc2ccc(C)cn12 ?
7.25 µM

====

# Tested on: Plasmodium berghei
# Protocol Details: Luciferase/luciferin-expressing antifolate-resistant parasites were used to infect a culture of HepG2 cells that were pre-incubated with compounds. Infected hepatocytes emit light due to the luciferase reaction. Assay results are presented as the percent inhibition of light emission compared to control. […]
# Type: functional
# Protocol Conditions: sporozoite, PBLUC_HILL_SLOPE 0.840, 16.2, PBLUC_R_SQUARED 0.288, 0.265, read-out: LUCIFERASE INFECTION ASSAY - IC50
Assay Metric: IC50

What measured IC50 goes with Cc1ccsc1CN(C)C(C)C(=O)Nc1cc(C(F)(F)F)ccc1N1CCOCC1 (stereo unspecified) ?
> 10 µM
